molecular target: ATR/ATRIP (h) (Homo sapiens, UniProt Q13535); test: ATR kinase activity assay (DiscoverX/Eurofins, HTRF); conditions: ATP 10 µM
Sequence (Q13535 whole entry): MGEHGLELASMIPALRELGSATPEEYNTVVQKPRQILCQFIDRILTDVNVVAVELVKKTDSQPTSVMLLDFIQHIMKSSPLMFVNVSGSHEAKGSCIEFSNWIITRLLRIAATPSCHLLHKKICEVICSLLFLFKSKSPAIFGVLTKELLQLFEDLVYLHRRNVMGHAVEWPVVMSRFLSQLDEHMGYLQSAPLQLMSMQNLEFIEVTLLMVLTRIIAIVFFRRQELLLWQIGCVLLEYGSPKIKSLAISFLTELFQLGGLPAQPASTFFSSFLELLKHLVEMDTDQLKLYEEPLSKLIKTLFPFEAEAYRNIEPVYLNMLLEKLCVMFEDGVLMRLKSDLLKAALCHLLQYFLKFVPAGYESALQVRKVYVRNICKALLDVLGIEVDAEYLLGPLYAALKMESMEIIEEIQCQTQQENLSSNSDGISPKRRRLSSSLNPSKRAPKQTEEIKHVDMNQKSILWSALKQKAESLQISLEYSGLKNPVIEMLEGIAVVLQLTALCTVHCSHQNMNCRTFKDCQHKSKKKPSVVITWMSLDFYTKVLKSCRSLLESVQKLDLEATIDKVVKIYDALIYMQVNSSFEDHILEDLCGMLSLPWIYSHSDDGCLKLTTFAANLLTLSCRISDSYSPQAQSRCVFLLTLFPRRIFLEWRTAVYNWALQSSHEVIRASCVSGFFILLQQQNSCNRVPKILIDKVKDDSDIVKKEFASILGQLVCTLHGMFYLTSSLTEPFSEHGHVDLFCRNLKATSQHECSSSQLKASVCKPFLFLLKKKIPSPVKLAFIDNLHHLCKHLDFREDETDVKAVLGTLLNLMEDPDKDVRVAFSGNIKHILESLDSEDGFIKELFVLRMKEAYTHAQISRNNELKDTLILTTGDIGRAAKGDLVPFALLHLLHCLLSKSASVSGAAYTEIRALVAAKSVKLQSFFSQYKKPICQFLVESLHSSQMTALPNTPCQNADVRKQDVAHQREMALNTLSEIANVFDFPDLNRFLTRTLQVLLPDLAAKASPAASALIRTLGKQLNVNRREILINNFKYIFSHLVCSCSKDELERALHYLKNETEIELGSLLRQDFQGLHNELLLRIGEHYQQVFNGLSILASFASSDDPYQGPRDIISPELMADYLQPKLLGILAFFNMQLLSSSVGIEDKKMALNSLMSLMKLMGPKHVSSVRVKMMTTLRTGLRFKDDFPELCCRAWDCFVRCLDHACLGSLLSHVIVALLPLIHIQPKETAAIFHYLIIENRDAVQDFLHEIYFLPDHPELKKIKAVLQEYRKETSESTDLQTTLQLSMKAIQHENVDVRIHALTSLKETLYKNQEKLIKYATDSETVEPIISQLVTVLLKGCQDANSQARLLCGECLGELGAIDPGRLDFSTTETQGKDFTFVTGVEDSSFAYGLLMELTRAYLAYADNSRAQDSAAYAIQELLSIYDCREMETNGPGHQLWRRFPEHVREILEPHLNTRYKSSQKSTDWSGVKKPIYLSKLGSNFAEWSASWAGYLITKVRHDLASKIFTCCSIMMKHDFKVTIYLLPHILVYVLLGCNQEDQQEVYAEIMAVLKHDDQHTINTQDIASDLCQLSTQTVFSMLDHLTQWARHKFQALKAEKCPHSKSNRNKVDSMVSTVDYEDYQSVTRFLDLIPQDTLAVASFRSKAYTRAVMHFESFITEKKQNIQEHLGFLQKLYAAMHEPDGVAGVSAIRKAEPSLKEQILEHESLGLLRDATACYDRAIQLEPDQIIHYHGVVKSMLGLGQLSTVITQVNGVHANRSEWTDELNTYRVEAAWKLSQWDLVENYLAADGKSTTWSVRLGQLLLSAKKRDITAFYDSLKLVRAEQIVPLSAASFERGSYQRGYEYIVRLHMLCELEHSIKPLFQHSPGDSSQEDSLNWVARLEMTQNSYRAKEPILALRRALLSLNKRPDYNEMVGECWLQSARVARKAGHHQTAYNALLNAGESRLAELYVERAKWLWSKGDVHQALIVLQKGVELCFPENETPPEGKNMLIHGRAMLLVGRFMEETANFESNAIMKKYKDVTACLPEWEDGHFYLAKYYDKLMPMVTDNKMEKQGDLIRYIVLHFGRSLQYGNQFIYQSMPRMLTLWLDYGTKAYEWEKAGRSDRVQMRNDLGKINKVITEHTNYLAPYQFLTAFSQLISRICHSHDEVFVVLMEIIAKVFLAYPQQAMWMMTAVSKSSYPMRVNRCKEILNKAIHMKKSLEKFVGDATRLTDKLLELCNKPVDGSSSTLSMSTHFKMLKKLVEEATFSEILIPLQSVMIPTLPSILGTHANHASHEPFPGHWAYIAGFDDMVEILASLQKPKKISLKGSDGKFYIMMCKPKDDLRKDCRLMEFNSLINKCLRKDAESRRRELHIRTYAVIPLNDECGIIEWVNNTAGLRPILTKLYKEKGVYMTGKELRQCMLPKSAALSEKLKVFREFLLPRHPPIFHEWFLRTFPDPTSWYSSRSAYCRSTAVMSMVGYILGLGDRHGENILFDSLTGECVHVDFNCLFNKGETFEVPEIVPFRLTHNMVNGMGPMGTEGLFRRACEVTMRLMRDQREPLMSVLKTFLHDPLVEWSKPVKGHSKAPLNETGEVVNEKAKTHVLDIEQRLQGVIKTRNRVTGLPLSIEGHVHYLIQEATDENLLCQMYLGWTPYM
Sequence (Q8WXE1 whole entry partner): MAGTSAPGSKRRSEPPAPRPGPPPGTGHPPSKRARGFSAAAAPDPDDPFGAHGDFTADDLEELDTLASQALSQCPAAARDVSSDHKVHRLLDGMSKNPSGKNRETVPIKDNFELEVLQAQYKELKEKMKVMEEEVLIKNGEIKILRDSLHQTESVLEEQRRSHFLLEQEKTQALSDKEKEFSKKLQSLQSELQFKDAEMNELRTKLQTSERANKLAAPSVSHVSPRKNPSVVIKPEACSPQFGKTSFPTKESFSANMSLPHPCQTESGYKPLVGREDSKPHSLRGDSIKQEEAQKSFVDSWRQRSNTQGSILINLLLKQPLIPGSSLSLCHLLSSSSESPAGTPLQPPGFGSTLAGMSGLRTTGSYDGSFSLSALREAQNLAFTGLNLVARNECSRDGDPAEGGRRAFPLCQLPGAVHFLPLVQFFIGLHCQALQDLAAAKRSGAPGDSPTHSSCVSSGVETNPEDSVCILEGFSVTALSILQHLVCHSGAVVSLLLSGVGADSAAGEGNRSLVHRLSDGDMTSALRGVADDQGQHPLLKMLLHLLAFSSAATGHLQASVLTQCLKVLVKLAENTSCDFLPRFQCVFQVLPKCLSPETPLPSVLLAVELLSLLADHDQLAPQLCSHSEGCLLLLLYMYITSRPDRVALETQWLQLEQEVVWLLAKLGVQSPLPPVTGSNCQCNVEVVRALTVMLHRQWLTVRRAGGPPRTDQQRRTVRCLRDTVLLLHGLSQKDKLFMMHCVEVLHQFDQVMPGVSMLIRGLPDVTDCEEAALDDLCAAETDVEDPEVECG
pIC50: −log10 of the molar value.

[
  {
    "givenSmiles": "N#Cc1ccc2ncc(NC(=O)Nc3cccnc3)cc2c1",
    "pIC50": "< 5.00"
  }
]

----------
molecular target: CaMKK2 (h) (Homo sapiens, UniProt Q96RR4)
pIC50: −log10 of the molar value.

[
  {
    "compound": "CC(=O)c1ccc(-c2cnn3ccc(C(N)=O)nc23)cc1 [QFASG-2]",
    "experimentalSystem": "CaMKK2 (h) (Homo sapiens, UniProt Q96RR4)",
    "pIC50": 5.52
  }
]

Every entry's value here was drawn from paper PMC11021760.
